# Tested on: Staphylococcus aureus
# experimentalDetails: Antibacterial activity against methicillin resistant Staphylococcus aureus 2
# Assay type: functional
Quick list: MIC per entry.
endpoint: MIC (µg/mL)

>>> valuemeasured("CCn1cc(C(=O)O)c(=O)c2cc(F)c(N3CCN(Cc4nnc(-c5ccc(OC)cc5)o4)CC3)cc21")
0.25
>>> valuemeasured("CCn1cc(C(=O)O)c(=O)c2cc(F)c(N3CCN(Cc4nnc(-c5cccc(OC)c5)o4)CC3)cc21")
0.5
>>> valuemeasured("CCn1cc(C(=O)O)c(=O)c2cc(F)c(N3CCN(Cc4nnc(-c5ccccc5Cl)o4)CC3)cc21")
0.25

----------
# Tested on: Staphylococcus aureus
# experimentalDetails: Antibacterial activity against Staphylococcus aureus
# Assay type: functional
endpoint: MIC

>>> valuemeasured("O=C(O)c1cn(-c2ccc(F)cc2)c2cc(N3CCN(Cc4nc5cc(Cl)ccc5c(=O)[nH]4)CC3)c(F)cc2c1=O")
"0.125 µg/mL"
>>> valuemeasured("O=C(O)c1cn(-c2ccc(F)cc2)c2cc(N3CCN(Cc4nc5ccccc5c(=O)[nH]4)CC3)c(F)cc2c1=O")
"0.125 µg/mL"
>>> valuemeasured("COc1ccc2nc(CN3CCN(c4cc5c(cc4F)c(=O)c(C(=O)O)cn5C4CC4)CC3)[nH]c(=O)c2c1")
"0.016 µg/mL"
>>> valuemeasured("CCN1CCN(c2cc3c(cc2F)c(=O)c(C(=O)O)cn3CC)CC1")
"1.1 µg/mL"

----------
# Tested on: Staphylococcus aureus
# experimentalDetails: Antibacterial activity against Staphylococcus aureus
# Format: functional
MIC strictly under 0.1 µg/mL means MET; at 0.1 µg/mL or over means NOT MET.

>>> qualitativelabel("C=Cn1c(SCC(=O)N2CCN(c3cc4c(cc3F)c(=O)c(C(=O)O)cn4C3CC3)CC2)nnc1-c1ccccc1")
"NOT MET"
>>> qualitativelabel("CCn1cc(C(=O)O)c(=O)c2cc(F)c(N3CCN(Cc4nnc(-c5cccc(OC)c5)o4)CC3)cc21")
"NOT MET"
>>> qualitativelabel("O=C(O)c1cn(C2CC2)c2cc(N3CCN(Cn4nc(-c5ccccn5)oc4=S)CC3)c(F)cc2c1=O")
"MET"
>>> qualitativelabel("CCn1cc(C(=O)O)c(=O)c2cc(F)c(N3CCN(Cc4nnc(-c5ccc(OC)cc5)o4)CC3)cc21")
"NOT MET"
>>> qualitativelabel("COc1c(N2CCNC(C)C2)c(F)cc2c(=O)c(C(=O)O)cn(C3CC3)c12 (stereo not given) [GATIFLOXACIN]")
"MET"
>>> qualitativelabel("CCOc1cc(OCC)nc(/N=N/N2CCN(c3c(F)cc4c(=O)c(C(=O)C(C(C)=O)C(=O)OC)cn(C5CC5)c4c3OC)CC2)n1 (stereo not given)")
"MET"
>>> qualitativelabel("C=CCn1c(SCC(=O)N2CCN(c3cc4c(cc3F)c(=O)c(C(=O)O)cn4C3CC3)CC2)nnc1-c1ccccc1")
"NOT MET"
>>> qualitativelabel("O=C(O)c1cn(C2CC2)c2cc(N3CCN(Cc4nc5ccc(Cl)cc5c(=O)[nH]4)CC3)c(F)cc2c1=O")
"MET"
>>> qualitativelabel("O=C(O)c1cn(C2CC2)c2cc(N3CCN(Cc4nc5ccccc5c(=O)[nH]4)CC3)c(F)cc2c1=O")
"MET"
>>> qualitativelabel("O=C(CSC(=S)N1CCN(c2cc3c(cc2F)c(=O)c(C(=O)O)cn3C2CC2)CC1)Nc1ccccc1Cl")
"MET"
>>> qualitativelabel("O=C(O)c1cn(-c2ccc(F)cc2)c2cc(N3CCN(Cc4nc5ccc(Cl)cc5c(=O)[nH]4)CC3)c(F)cc2c1=O")
"NOT MET"
>>> qualitativelabel("CC(=O)C(C(C)=O)C(=O)c1cn(C2CC2)c2cc(N3CCN(/N=N/c4nc(C)cc(C)n4)CC3)c(F)cc2c1=O")
"MET"
>>> qualitativelabel("COc1c(N2CCN(C(=O)c3ccc4cccc(O)c4n3)CC2)c(F)cc2c(=O)c(C(=O)O)cn(C3CC3)c12")
"MET"
>>> qualitativelabel("O=C(CN1CCN(c2cc3c(cc2F)c(=O)c(C(=O)O)cn3-c2ccc(F)cc2)CC1)c1ccc(Cl)cc1")
"NOT MET"
